Where these numbers come from: paper PMC12849875

target: GPR119 (Homo sapiens); assay: cAMP accumulation in heterologous expression system; PathHunter β-arrestin […] recruitment (EC50 =[…])
Sequence (Q8TDV5 whole entry): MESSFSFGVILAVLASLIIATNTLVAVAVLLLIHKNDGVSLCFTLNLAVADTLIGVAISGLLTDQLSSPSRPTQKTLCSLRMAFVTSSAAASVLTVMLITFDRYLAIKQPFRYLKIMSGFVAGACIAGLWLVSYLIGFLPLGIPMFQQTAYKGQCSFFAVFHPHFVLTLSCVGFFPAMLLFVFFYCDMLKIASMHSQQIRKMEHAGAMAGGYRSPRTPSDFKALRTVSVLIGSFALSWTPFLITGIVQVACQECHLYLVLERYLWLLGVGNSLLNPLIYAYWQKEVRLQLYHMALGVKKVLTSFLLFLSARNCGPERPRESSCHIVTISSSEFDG
reported_property: EC50 (µM)
Numbers only here, please. The scale is µM.

[Q] Quick check: EC50 of CCCCCC1OC1C/C=C\C/C=C\C/C=C\CCCC(=O)NCCO (stereo not shown) [14,15-EET-EA] ?
[A] 3.74
